METHOD NOTES: AUC (0 to infinity) in C57BL/6 mouse at 40 mg/kg, po formulated in 0.1% SLS
Format: ADME, organism-based
Design: time infinity, dose 40 mg/kg, route oral
SETTINGS: plasma

SMILES DATA | UNITS LABEL | AUC(0-inf)
O=C1C2=Nc3ccccc3CN2c2ccc(Cl)cc21 | ng·h/mL | 1400

###

METHOD NOTES: Efflux ratio in human Caco2 cells incubated for 1 hr at 37 degC by HPLC-MS/MS method
Type: ADME, cell-based
SETTINGS: Caco-2
Below, each entry is listed with its recorded efflux ratio at 1 h.
MEASURED ATTRIBUTE: efflux ratio at 1 h

SMILES DATA | MEASURED ATTRIBUTE | RESULT
O=C1c2cc(Cl)ccc2-n2c1nc1cc(F)ccc1c2=O | efflux ratio at 1 h | > 1
O=C1C2=Nc3ccccc3CN2c2ccc(Cl)cc21 | efflux ratio at 1 h | > 1
O=C1c2cc(F)ccc2-n2c1nc1ccccc1c2=O | efflux ratio at 1 h | > 1

###

METHOD NOTES: Tmax in C57BL/6 mouse at 40 mg/kg, po formulated in 20% DMSODMSO, 20% PEG400, 60% (30% HP-beta-CD in water)
Type: ADME, organism-based
Design: dose 40 mg/kg, route oral
SETTINGS: in vivo

SMILES DATA | Tmax (h)
O=C1C2=Nc3ccccc3CN2c2ccc(Cl)cc21 | 1.5

###

Below, each entry is listed with its recorded logD at 1 h.
METHOD NOTES: Distribution coefficient, log D of the compound between n-octanol and PBS buffer at pH 7.4 incubated for 1 hr by shake flask method
Assay type: physicochemical

SMILES DATA | logD at 1 h
O=C1c2ccccc2-n2c1nc1ccc(Br)cc1c2=O | 1.69
O=C1c2cc(Cl)ccc2-n2c1nc1ncccc1c2=O | 1.77
O=C1c2cc(Cl)ccc2-n2c1nc1ccccc1c2=O | 2.76
CCOC(=O)c1ccc2c(c1)C(=O)c1nc3ccccc3c(=O)n1-2 | 2.94
O=C1c2ccccc2-n2c1nc1ccccc1c2=O | 2.29
O=C1C2=Nc3ccccc3CN2c2ccc(Cl)cc21 | 3.37
O=C1c2cc(Br)ccc2-n2c1nc1ccncc1c2=O | 1.6
O=C1c2ccc(Cl)cc2-n2c1nc1ccccc1c2=O | 2.45

###

Tested on: Mycobacterium tuberculosis
METHOD NOTES: Antitubercular activity against Mycobacterium tuberculosis H37Rv incubated at 37 degC for 14 days in presence of 40% human serum by microplate alamar blue assay
Assay type: functional
SETTINGS: 336 h

COMPOUND | MIC (µg/mL)
O=C1c2cc(OC(F)(F)F)ccc2-n2c1nc1ccncc1c2=O | 0.5
O=C1c2ccc(Cl)cc2-n2c1nc1ccccc1c2=O | 0.5
O=C1c2ccc(N3CCC(O)C3)cc2-n2c1nc1ccccc1c2=O (stereo unspecified) | 8
O=C1C2=Nc3ccccc3CN2c2ccc(Cl)cc21 | 0.125
O=C1c2ccccc2-n2c1nc1ccc([N+](=O)[O-])cc1c2=O | 32
CCOC(=O)c1ccc2c(c1)C(=O)c1nc3c(OC)cccc3c(=O)n1-2 | 4
O=C1c2ccc(N3CCC(O)CC3)cc2-n2c1nc1ccccc1c2=O | 16
O=C1c2cc(Br)ccc2-n2c1nc1ccccc1c2=O | 0.5
O=C1c2ccc(Cl)cc2-n2c1nc1ccncc1c2=O | 1
O=C1c2cc([N+](=O)[O-])ccc2-n2c1nc1ncccc1c2=O | 4
O=C1c2cc(Br)ccc2-n2c1nc1ncccc1c2=O | 32
